- Measured target: T1, human PD-L1 protein (soluble) (human, UniProt Q9NZQ7 19-239)
- T1 construct: also called PD-L1 (R&D Systems); His-tagged PD-L1 protein
- T1 sequence (Q9NZQ7 19-239 limits assumed): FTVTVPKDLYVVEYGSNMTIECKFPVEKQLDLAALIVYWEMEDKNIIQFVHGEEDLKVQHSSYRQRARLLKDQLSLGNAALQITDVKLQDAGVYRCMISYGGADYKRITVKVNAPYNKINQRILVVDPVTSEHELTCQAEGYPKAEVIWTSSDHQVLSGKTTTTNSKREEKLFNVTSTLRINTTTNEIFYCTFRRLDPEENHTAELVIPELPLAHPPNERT
- Protocol: SPR, mAb captured on anti-human IgG Fc, PD-L1 as analyte

[
  {
    "Binder": "antibody A17 (antibody, V domains shown, Tested as full-length mAb made in CHO cells; also called L17H17) VH: QVQLQESGPGLVKPSETLSLTCTVSGGSISGYSWSWIRQPPGKGLEWIGYIYYSGSTNNNPSLKSRVTISVDTSKNQFSLKLSSVTAADTAVYFCARDDGIAVAGYYFYYGLDVWGQGTTVTVSS VL: DIQMTQSPSSLSASVGDRVTITCRASQGIRNDLGWYQQKPGKAPKRLIYAASSLQSGVPSRFSGSGSGTEFTLTISSLQPEDFATYYCLQHNTYPWTFGQGTKVEIK",
    "Kd [nM]": 335
  },
  {
    "Binder": "antibody A6 (antibody, V domains shown, Tested as full-length mAb made in CHO cells; also called L6H6) VH: QVQLVESGGGVVQPGRSLRLSCAASGFTFSSYGMHWVRQAPGKGLEWVAVIWFDGSNKYYADSVKGRFTISRDNSKNTLYLQMNSLRAEDTAVYYCARDKTVSPFDIWGQGTMVTVSS VL: EIVMTQSPATLSLSPGERATLSCRASQSVSSSYLSWYQQKPGQAPRLLIYGASTRATGIPARFSGSGSGTDFTLTISSLQPEDFAVYYCQQDYNLFTFGPGTKVDIK",
    "Kd [nM]": 16
  },
  {
    "Binder": "antibody A14 (antibody, V domains shown, Tested as full-length mAb made in CHO cells; also called L14H14) VH: QVQLVESGGGVVQPGRSLRLSCAASGFTFSSYGMHWVRQAPGKGLEWVAVIWYDGSVKYYADSVKGRFTISRDNSKNTLYLQMNSLRAEDTAVYYCARDRTGVPFDYWGQGTLVTVSS VL: EIVMTQSPATLSLSPGERATLSCRASQSVSSSYLSWYQQKPGQAPRLLIYGASTRATGIPARFSGSGSGTDFTLTISSLQPEDFAVYYCQQDYNLPHTFGQGTKLEIK",
    "Kd [nM]": 148
  }
]
